- System: OVCAR-3
- MEASUREMENT NOTES: Antiproliferative activity against human OVCAR3 cells assessed as reduction in cell viability after 72 hrs by MTS assay
- Assay type: functional, cell-based
- EXPERIMENTAL CONDITIONS: OVCAR-3, 72 h
RECORDED ENDPOINT: pIC50
Remember the convention: pIC50 equals -log10 of concentration in molar.

// query Item `CCOC(=O)c1ccc2nc(-c3ccccc3)cc(O)c2c1` has what recorded pIC50?
// result 7.55

###

- System: NCI-H1975
- MEASUREMENT NOTES: Antiproliferative activity against human NCI-H1975 cells assessed as reduction in cell viability after 72 hrs by MTS assay
- Format: functional, cell-based
- EXPERIMENTAL CONDITIONS: NCI-H1975, 72 h
RECORDED ENDPOINT: IC50 (nM)
Give the quantity in nM, number only.

CC(C)OC(=O)c1ccc2[nH]c(-c3ccccc3)cc(=O)c2c1: 48
CCOC(=O)c1ccc2[nH]c(-c3ccc(Br)cc3)cc(=O)c2c1: 4500
CCOC(=O)c1ccc2[nH]c(-c3cccc(F)c3)cc(=O)c2c1: 24
CCOCc1ccc2[nH]c(-c3ccccc3)cc(=O)c2c1: 810

API: the following record is the query input.
// query Please provide the recorded IC50 for `COC(=O)c1ccc2[nH]c(-c3ccccc3)cc(=O)c2c1` , tested on NCI-H1975.
// result 207

###

- MEASUREMENT NOTES: Selectivity index, ratio of IC50 for human CCRF-CEM/VBL cells to IC50 for human CCRF-CEM cells
- Format: functional
RECORDED ENDPOINT: Ratio IC50
Number, no unit, nothing else.

C/C(=C\c1csc(C)n1)[C@@H]1C[C@@H]2O[C@]2(C)CCC[C@H](C)[C@H](O)[C@@H](C)C(=O)C(C)(C)[C@@H](O)CC(=O)N1 [IXABEPILONE]: 50
CCOC(=O)c1ccc2nc(-c3ccccc3)cc(O)c2c1: 0.97
CCOC(=O)c1ccc2[nH]c(-c3cccc(F)c3)cc(=O)c2c1: 0.8

Now take the following molecule into account.
// query Please look up its Ratio IC50: CC[C@]1(O)C[C@H]2CN(CCc3c([nH]c4ccccc34)[C@@](C(=O)OC)(c3cc4c(cc3OC)N(C=O)[C@H]3[C@@](O)(C(=O)OC)[C@H](OC(C)=O)[C@]5(CC)C=CCN6CC[C@]43[C@@H]65)C2)C1 [VINCRISTINE]
// result 440

###

- Tested on: NCI-H1975
- MEASUREMENT NOTES: Antiproliferative activity against human NCI-H1975 cells assessed as reduction in cell viability after 72 hrs by MTS assay
- Assay type: functional, cell-based
- EXPERIMENTAL CONDITIONS: NCI-H1975, 72 h
RECORDED ENDPOINT: IC50 (nM)
Your answer should be a plain number; it is taken to be in nM.

Some entries whose results are on file:
CCOC(=O)c1ccc2[nH]c(-c3ccc(O)cc3)cc(=O)c2c1: 475
CCOC(=O)c1ccc2[nH]c(-c3ccc(OC)cc3)cc(=O)c2c1: 2200
CCOC(=O)c1ccc2nc(-c3ccccc3)cc(O)c2c1: 33
CCOC(=O)c1ccc2[nH]c(-c3cccc(OC)c3)cc(=O)c2c1: 44
CCOC(=O)c1ccc2[nH]c(-c3ccc(F)cc3)cc(=O)c2c1: 2100
CCNC(=O)c1ccc2[nH]c(-c3ccccc3)cc(=O)c2c1: 3700
CCOC(=O)c1ccc2[nH]c(-c3cccc(C(F)(F)F)c3)cc(=O)c2c1: 780

Now consider the entry below.
// query State the recorded IC50 for this entry: `CCOC(=O)c1ccc2[nH]c(-c3cccc(O)c3)cc(=O)c2c1`
// result 1950

###

- SYSTEM NAME: Tubulin (Sus scrofa) (UniProt P02554+P02550)
- Sequence (P02550 whole entry, looked up): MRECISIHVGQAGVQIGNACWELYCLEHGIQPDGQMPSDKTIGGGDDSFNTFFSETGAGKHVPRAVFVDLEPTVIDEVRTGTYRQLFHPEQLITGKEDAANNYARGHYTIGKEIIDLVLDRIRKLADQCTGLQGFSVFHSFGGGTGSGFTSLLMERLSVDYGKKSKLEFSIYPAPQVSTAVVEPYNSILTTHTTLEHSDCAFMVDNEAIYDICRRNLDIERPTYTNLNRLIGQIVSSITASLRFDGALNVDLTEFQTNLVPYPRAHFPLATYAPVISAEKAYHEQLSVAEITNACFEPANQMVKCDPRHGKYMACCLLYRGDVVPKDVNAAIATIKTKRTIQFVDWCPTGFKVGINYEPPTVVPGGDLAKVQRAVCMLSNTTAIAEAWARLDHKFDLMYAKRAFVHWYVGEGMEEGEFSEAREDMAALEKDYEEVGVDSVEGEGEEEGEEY
- Sequence (P02554 whole entry, looked up): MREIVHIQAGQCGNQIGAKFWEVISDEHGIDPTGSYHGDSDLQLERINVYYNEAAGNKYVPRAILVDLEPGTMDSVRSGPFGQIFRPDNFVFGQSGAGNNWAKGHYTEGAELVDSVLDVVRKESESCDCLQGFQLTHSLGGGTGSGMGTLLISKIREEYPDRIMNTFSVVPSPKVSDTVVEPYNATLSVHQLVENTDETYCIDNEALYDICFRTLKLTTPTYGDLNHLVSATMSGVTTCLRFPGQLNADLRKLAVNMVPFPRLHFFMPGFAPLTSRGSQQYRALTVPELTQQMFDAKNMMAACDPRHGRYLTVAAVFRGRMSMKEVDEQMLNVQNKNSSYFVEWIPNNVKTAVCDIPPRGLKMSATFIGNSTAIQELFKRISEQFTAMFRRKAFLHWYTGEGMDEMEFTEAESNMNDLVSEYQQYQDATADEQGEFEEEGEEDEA
- MEASUREMENT NOTES: Inhibition of porcine tubulin at 5 uM in presence of GTP measured every minute for 1 hr by microplate reader analysis
- Type: protein assay
Calls of active or inactive are those of the source. The calls are words filed in the database; no cut-off is given here.
RECORDED ENDPOINT: tubulin inhibition call (active/not active)

CC[C@]1(O)C[C@H]2CN(CCc3c([nH]c4ccccc34)[C@@](C(=O)OC)(c3cc4c(cc3OC)N(C=O)[C@H]3[C@@](O)(C(=O)OC)[C@H](OC(C)=O)[C@]5(CC)C=CCN6CC[C@]43[C@@H]65)C2)C1: Active
CCOC(=O)c1ccc2nc(-c3ccccc3)cc(O)c2c1: Active
COC(=O)Nc1nc2cc(C(=O)c3cccs3)ccc2[nH]1: Active
